The values you see were collected from patent US5616684A.

# System: ETB receptor (guinea pig kidney crude receptor membrane fraction)
# TEST DESCRIPTION: ETB Radio Receptor Assay *2
# Format: binding
# CONDITION DESCRIPTION: relative activity (Example 8 given as 100), 125I-endothelin-1, 37° C., 90 minutes
Non-standard residues stand in square brackets, D forms with d. Residues, ends and D or L forms follow the SMILES beside them. 1Nal = N[C@@H](Cc1cccc2ccccc12)C(=O)O; Pip = O=C(O)[C@@H]1CCCCN1
REPORTED ENDPOINT: Binding Activity on ET Receptor (R. act.) ET8 *2

[
  {
    "COMPOUND": "CC(C)C[C@@H]1NC(=O)[C@@H](CC(C)C)NC(=O)[C@@H]2CCCN2C(=O)[C@H](Cc2c[nH]c3ccccc23)NC(=O)[C@@H](CC(=O)O)NC(=O)[C@@H](Cc2c[nH]c3ccccc23)NC1=O [Example 36] (cyclo(L[dW][dD]WP[dL]))",
    "ENDPOINT VALUE": 42
  },
  {
    "COMPOUND": "CC(C)C[C@@H]1NC(=O)[C@@H](CC(C)C)NC(=O)[C@H](CC(=O)O)NC(=O)[C@H](Cc2cccc3ccccc23)NC(=O)[C@@H](CC(=O)O)NC(=O)[C@@H](Cc2c[nH]c3ccccc23)NC1=O [Example 23] (cyclo([1Nal]D[dL]L[dW][dD]))",
    "ENDPOINT VALUE": 7.7
  },
  {
    "COMPOUND": "CC(C)C[C@@H]1NC(=O)[C@@H](CC(C)C)NC(=O)[C@H](Cc2c[nH]c3ccccc23)NC(=O)[C@H](CC(=O)O)NC(=O)[C@@H](CC(=O)O)NC(=O)[C@@H](Cc2c[nH]c3ccccc23)NC1=O [Example 33] (cyclo(DW[dL]L[dW][dD]))",
    "ENDPOINT VALUE": 5.6
  },
  {
    "COMPOUND": "CC(C)C[C@@H]1NC(=O)[C@@H](CC(C)C)NC(=O)[C@H](CC(=O)O)NC(=O)[C@@H]2CCCCN2C(=O)[C@@H](CC(=O)O)NC(=O)[C@@H](Cc2c[nH]c3ccccc23)NC1=O [Example 26] (cyclo(D[dL]L[dW][dD][Pip]))",
    "ENDPOINT VALUE": 73
  }
]
